I'd be grateful if you could share measured inhibition for these entries.
# Species on record: Homo sapiens
# assay.overview: Inhibition of CDK1/Cyclin B (unknown origin) at 50 nM by Z'LYTE screening method relative to control
Numbers only, in %.

Known results for compounds:
• O=c1c2ccccc2[se]n1-c1nc(N[C@H]2CC[Se]C2)c2nc[nH]c2n1 = 0
• O=C1c2ccccc2CN1c1nc(NC2CCCC2)c2nc[nH]c2n1 = 0
• CCN(CC)CCCC(C)Nc1nc(-n2[se]c3ccccc3c2=O)nc2[nH]cnc12 (centres undefined) = 0

Switching to the query record.
[in] Let me know recorded inhibition for O=c1c2ccccc2[se]n1-c1nc(N[C@H]2CCOC2)c2nc[nH]c2n1 , thanks.
[out] 1

---

I'd be grateful if you could share measured inhibition for these entries.
# subject.of.test: Serine/threonine-protein kinase D1 (Homo sapiens)
# assay.overview: Inhibition of PKCmu (unknown origin) at 50 nM by Z'LYTE screening method relative to control
Returns: string containing the numeric result and its unit.

Known results for compounds:
- CCCNc1nc(-n2[se]c3ccccc3c2=O)nc2[nH]cnc12: 0%
- O=c1c2ccccc2[se]n1-c1nc(N[C@H]2CC[Se]C2)c2nc[nH]c2n1: 7%
- O=c1c2ccccc2[se]n1-c1nc(N[C@H]2CCOC2)c2nc[nH]c2n1: 0%

Switching to the query record.
[in] Let me know recorded inhibition for O=C1c2ccccc2CN1c1nc(N[C@H]2CC[Se]C2)c2nc[nH]c2n1 , thanks.
[out] 1%

---

# subject.of.test: Aurora kinase B (Homo sapiens) (UniProt Q96GD4)
# Sequence (Q96GD4 whole entry): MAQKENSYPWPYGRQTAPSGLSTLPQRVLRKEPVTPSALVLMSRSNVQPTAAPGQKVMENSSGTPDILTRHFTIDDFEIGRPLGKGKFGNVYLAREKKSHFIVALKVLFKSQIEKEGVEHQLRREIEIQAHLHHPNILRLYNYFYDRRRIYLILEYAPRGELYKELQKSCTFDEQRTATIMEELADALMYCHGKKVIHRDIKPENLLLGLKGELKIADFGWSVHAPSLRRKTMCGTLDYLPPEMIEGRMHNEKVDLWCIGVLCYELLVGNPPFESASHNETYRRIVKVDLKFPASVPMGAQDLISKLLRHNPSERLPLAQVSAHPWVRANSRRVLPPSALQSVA
# assay.overview: Inhibition of AURB (unknown origin) at 50 nM by Z'LYTE screening method relative to control
measured.attribute: inhibition (%)
Answers are plain numbers, in %.

• O=C1c2ccccc2CN1c1nc(NC2CCCC2)c2nc[nH]c2n1 = 1

State recorded inhibition for all listed compounds.
1. CCN(CC)CCCC(C)Nc1nc(-n2[se]c3ccccc3c2=O)nc2[nH]cnc12 (stereo not given)
2. O=C1c2ccccc2CN1c1nc(NC2CCCCC2)c2nc[nH]c2n1
3. O=c1c2ccccc2[se]n1-c1nc(N[C@H]2CC[Se]C2)c2nc[nH]c2n1
4. O=c1c2ccccc2[se]n1-c1nc(NC2CCCCC2)c2nc[nH]c2n1

[out]
1. 6
2. 4
3. 0
4. 7

---

# subject.of.test: UniProtKB Q15418
# Sequence (Q15418 whole entry): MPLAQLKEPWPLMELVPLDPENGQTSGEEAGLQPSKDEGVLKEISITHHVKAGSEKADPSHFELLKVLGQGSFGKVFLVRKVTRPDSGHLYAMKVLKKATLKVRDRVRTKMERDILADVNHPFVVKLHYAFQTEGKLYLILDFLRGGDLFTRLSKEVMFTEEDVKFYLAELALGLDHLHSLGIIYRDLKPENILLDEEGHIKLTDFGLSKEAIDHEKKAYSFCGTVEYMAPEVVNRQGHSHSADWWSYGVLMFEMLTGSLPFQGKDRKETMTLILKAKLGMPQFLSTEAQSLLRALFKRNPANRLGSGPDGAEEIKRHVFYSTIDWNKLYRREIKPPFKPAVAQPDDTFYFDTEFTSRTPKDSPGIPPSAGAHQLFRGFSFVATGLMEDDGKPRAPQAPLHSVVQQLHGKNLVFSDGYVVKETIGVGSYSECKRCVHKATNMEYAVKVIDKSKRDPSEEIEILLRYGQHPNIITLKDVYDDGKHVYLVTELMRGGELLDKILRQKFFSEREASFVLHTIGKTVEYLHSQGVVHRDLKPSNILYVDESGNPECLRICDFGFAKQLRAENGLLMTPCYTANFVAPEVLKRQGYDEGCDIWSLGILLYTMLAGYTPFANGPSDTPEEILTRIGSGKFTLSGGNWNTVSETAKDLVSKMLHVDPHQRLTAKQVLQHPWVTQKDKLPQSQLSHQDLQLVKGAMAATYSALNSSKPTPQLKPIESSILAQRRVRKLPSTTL
# assay.overview: Inhibition of RPS6KA1 (unknown origin) at 50 nM by Z'LYTE screening method relative to control
measured.attribute: inhibition (%)
Give bare numbers, in %.

• O=C1c2ccccc2CN1c1nc(NC2CCCC2)c2nc[nH]c2n1 = 1
• O=C1c2ccccc2CN1c1nc(N[C@H]2CC[Se]C2)c2nc[nH]c2n1 = 0

[in] Let me know recorded inhibition for CCN(CC)CCCC(C)Nc1nc(-n2[se]c3ccccc3c2=O)nc2[nH]cnc12 (stereo not drawn) , thanks.
[out] 0

---

# subject.of.test: Proto-oncogene tyrosine-protein kinase receptor Ret (Homo sapiens) (UniProt P07949)
# Sequence (P07949 whole entry): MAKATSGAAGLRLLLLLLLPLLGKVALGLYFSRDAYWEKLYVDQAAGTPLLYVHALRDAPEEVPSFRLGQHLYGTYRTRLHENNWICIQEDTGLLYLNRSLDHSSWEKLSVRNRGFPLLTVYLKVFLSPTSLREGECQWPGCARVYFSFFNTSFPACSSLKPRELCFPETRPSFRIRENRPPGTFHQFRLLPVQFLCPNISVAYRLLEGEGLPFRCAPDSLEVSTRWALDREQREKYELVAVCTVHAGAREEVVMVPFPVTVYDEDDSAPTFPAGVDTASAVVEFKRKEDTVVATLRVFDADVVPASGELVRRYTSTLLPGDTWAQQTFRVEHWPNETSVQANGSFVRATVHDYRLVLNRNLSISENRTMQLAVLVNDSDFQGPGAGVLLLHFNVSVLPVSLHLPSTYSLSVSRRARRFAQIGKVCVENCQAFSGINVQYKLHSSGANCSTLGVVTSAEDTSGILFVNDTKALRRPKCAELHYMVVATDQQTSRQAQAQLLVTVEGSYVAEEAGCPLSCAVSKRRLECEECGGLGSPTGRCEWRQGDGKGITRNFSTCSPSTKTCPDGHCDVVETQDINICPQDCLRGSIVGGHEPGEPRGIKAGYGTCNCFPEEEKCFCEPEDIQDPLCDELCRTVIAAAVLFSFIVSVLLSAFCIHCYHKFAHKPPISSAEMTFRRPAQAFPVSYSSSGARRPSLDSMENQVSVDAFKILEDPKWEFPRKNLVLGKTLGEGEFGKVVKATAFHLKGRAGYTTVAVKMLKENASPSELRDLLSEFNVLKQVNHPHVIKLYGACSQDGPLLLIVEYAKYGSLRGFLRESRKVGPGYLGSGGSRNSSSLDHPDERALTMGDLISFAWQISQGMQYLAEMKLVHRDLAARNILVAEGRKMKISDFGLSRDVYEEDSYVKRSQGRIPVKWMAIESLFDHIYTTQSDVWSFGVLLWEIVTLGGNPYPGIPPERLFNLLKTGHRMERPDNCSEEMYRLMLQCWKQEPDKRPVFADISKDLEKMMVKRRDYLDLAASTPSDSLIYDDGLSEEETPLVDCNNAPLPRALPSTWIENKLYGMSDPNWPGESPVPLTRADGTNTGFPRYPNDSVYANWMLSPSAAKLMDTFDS
# assay.overview: Inhibition of RET (unknown origin) at 50 nM by Z'LYTE screening method relative to control
measured.attribute: inhibition (%)
Give bare numbers, in %.

Known results for compounds:
• CCN(CC)CCCC(C)Nc1nc(N2Cc3ccccc3C2=O)nc2[nH]cnc12 (stereo not given) = 2
• O=c1c2ccccc2[se]n1-c1nc(NC2CCCCC2)c2nc[nH]c2n1 = 13
• O=c1c2ccccc2[se]n1-c1nc(N[C@H]2CCOC2)c2nc[nH]c2n1 = 7
• O=c1c2ccccc2[se]n1-c1nc(N[C@@H]2C[C@H]3CC[C@@H]2C3)c2nc[nH]c2n1 = 6

[in] Let me know recorded inhibition for O=C1c2ccccc2CN1c1nc(N[C@H]2CC[Se]C2)c2nc[nH]c2n1 , thanks.
[out] 2
